G2/M (%) listing for selected molecules.
# System: CCRF-CEM cells
# Assay explanation: Cell cycle and apoptosis analysis (propidium iodide flow cytometry)
# Assay type: cell-based, human
# Assay conditions: 5 × IC50
Give just the number in %; leave the unit off.

C=C(Cn1cc(-c2ccccn2)nn1)[C@@H]1CC[C@]2(C(=O)O)CC[C@]3(C)C(CCC4[C@@]5(C)CC[C@H](OC(C)=O)C(C)(C)C5CC[C@]43C)C12 (some centres unmarked); 21.0

-- ask GET /values?readout=G2/M (%)&item= C=C(Cn1cc(-c2ccccc2C=O)nn1)[C@@H]1CC[C@]2(C(=O)O)CC[C@]3(C)C(CCC4[C@@]5(C)CC[C@H](O)C(C)(C)C5CC[C@]43C)C12 (some centres unmarked) [Compound 11b]
-- reply 19.1

-- ask GET /values?readout=G2/M (%)&item= C=C(CBr)[C@@H]1CC[C@]2(C(=O)O)CC[C@]3(C)C(CCC4[C@@]5(C)CC[C@H](OC(C)=O)C(C)(C)C5CC[C@]43C)C12 (some centres unmarked)
-- reply 23.2

-- ask GET /values?readout=G2/M (%)&item= C=C(Cn1cc(-c2ccccc2C=O)nn1)[C@@H]1CC[C@]2(C(=O)O)CC[C@]3(C)C(CCC4[C@@]5(C)CC[C@H](OC(C)=O)C(C)(C)C5CC[C@]43C)C12 (some centres unmarked)
-- reply 18.1

-- ask GET /values?readout=G2/M (%)&item= C=C(CN=[N+]=[N-])[C@@H]1CC[C@]2(C(=O)O)CC[C@]3(C)C(CCC4[C@@]5(C)CC[C@H](OC(C)=O)C(C)(C)C5CC[C@]43C)C12 (some centres unmarked)
-- reply 23.8

Every entry's value here was drawn from paper PMC5291411.
